Origin of measurements: patent US20200079833A1

- TGT: GLP-1 receptor (human, UniProt P43220 24-463)
- TEST: cell-based or functional assay
Starred links: 1 amine or outer side, 2 acyl side, 3 side chain; linkers in the order of their positions; H or OH if unused. Non-standard residues stand in square brackets, D forms with d. Groups on a side chain read outwards from the residue. Primed or numbered codes have the meaning given here. No end group written: not given here. *: point of attachment. γGlu = O=C(O)[C@H](CCC(=O)[*:2])N[*:1]; Stearoyl = CCCCCCCCCCCCCCCCCC(=O)*; αMeF = C[C@](N)(Cc1ccccc1)C(=O)O; αMeK = C[C@](N)(CCCCN)C(=O)O; αMeS = C[C@](N)(CO)C(=O)O; PEG2′ = not defined here; Aib = CC(C)(N)C(=O)O
Each record is given True if its reported Primary assay EC50 (cAMP), n2 is strictly below 0.005 nM. Records at or above 0.005 nM are given False.

# BINDER, ASSIGNED_CLASS
rows = [
    ("H[Aib]EGS[αMeF]TSDV[αMeS]S[αMeF]LEGEAAK([PEG2′-PEG2′-PEG2′-Stearoyl])E[αMeF]IAWVV[αMeK]GG-NH2 [SEQ ID NO 55]", "True"),
    ("H[Aib]EGS[αMeF]TSDVSK([PEG2′-PEG2′-γGlu-Stearoyl])YLEGEAA[αMeK]E[αMeF]IA[αMeF]VVEGG-NH2 [SEQ ID NO 60]", "False"),
    ("H[Aib]EGS[αMeF]TSDVSS[αMeF]LEGEAAK([PEG2′-PEG2′-γGlu-Stearoyl])E[αMeF]IA[αMeF]VV[αMeK]GG-NH2 [SEQ ID NO 46]", "False"),
    ("H[Aib]EGS[αMeF]TSDV[αMeS]S[αMeF]LEGEAAKEFIK([PEG2′-PEG2′-γGlu-Stearoyl])WVVEGG-NH2 [SEQ ID NO 65]", "False"),
    ("H[Aib]EGS[αMeF]TSDV[αMeS]S[αMeF]LEGEAAEEFIK([PEG2′-PEG2′-γGlu-Stearoyl])WVVEGG-NH2 [SEQ ID NO 66]", "False"),
    ("HXEGTFTSDVSSYLEGQAAKEFIAWLVKGRK (Aib 2; K(ε-γE-Palmitoyl) after R30; C-terminal amide) [SEQ ID NO 5]", "False"),
    ("H[Aib]EGS[αMeF]TSDVSK([PEG2′-PEG2′-γGlu-Stearoyl])YLEGEAA[Aib]E[αMeF]IA[αMeF]VVEGG-NH2 [SEQ ID NO 59]", "False"),
    ("H[Aib]EGS[αMeF]TSDV[αMeS]S[αMeF]LEGEAAAEFIK([PEG2′-PEG2′-γGlu-Stearoyl])WVVEGG-NH2 [SEQ ID NO 69]", "False"),
    ("H[Aib]EGS[αMeF]TSDVSK([PEG2′-PEG2′-γGlu-Stearoyl])YLEGEAAEE[αMeF]IA[αMeF]VVEGG-NH2 [SEQ ID NO 58]", "False"),
    ("H[Aib]EGS[αMeF]TSDV[αMeS]S[αMeF]LEGEAA[αMeK]EFIK([PEG2′-PEG2′-γGlu-Stearoyl])WVVEGG-NH2 [SEQ ID NO 68]", "False"),
    ("H[Aib]EGS[αMeF]TSDVSK([PEG2′-PEG2′-PEG2′-Stearoyl])YLEGEAA[αMeK]E[αMeF]IA[αMeF]VVEGG-NH2 [SEQ ID NO 64]", "True"),
    ("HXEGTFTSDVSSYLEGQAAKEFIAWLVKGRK (Aib 2; K(ε-(PEG)2-(PEG)2-γE-Stearate) after R30; C-terminal amide) [SEQ ID NO 6]", "False"),
    ("H[Aib]EGS[αMeF]TSDV[αMeS]SYLEGEAAK([PEG2′-PEG2′-γGlu-Stearoyl])E[αMeF]IA[αMeF]VV[αMeK]GG-NH2 [SEQ ID NO 47]", "False"),
    ("H[Aib]EGS[αMeF]TSDV[αMeS]S[αMeF]LEGEAAK([PEG2′-PEG2′-PEG2′-Stearoyl])EFIA[αMeF]VV[αMeK]GG-NH2 [SEQ ID NO 54]", "True"),
    ("H[Aib]EGS[αMeF]TSDVSS[αMeF]LEGEAAK([PEG2′-PEG2′-PEG2′-Stearoyl])E[αMeF]IA[αMeF]VV[αMeK]GG-NH2 [SEQ ID NO 52]", "True"),
]
